This collection of values is drawn from paper PMC9482650.

- study-system: T1, MPP7, Q5T2T1
- T1 sequence (Q5T2T1 134-230, limits assumed, looked up): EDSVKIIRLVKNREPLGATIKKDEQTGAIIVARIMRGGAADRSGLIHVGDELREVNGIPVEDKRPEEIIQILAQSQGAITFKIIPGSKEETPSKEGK
- measurement-notes: holdup assay
- Set-up: key: below the threshold = too weak to quantify, mostly under pKd 3.1 to 4
- condition-label: plain residues with an end cap or a label only (N-terminal biotin on a linker: ado-ado)
measurement-name: pKd

>  <binder>
QSYPSKHDYV [CLDN18, P56856]

>  <measurement-name>
pKd

>  <result>
below the threshold

$$$$
>  <binder>
MHIQEKGFHV [EPHA6, Q9UF33]

>  <measurement-name>
pKd

>  <result>
below the threshold

$$$$
>  <binder>
SFISKKEWYV [NECTIN1, Q15223]

>  <measurement-name>
pKd

>  <result>
5.11

$$$$
>  <binder>
EKCGKEFSEF [PRKACA, P17612]

>  <measurement-name>
pKd

>  <result>
below the threshold

$$$$
>  <binder>
SRSVVESDEL [MYPN, Q86TC9]

>  <measurement-name>
pKd

>  <result>
below the threshold

$$$$
>  <binder>
ARESQKVSHV [FAM110B, Q8TC76]

>  <measurement-name>
pKd

>  <result>
below the threshold

$$$$
>  <binder>
TNSRHGETTV [FZD2, Q14332]

>  <measurement-name>
pKd

>  <result>
below the threshold

$$$$
>  <binder>
STKRKLASAV [NCF1, P14598]

>  <measurement-name>
pKd

>  <result>
below the threshold

$$$$
>  <binder>
ELSATVTTDC [TRIP6, Q15654]

>  <measurement-name>
pKd

>  <result>
3.65

$$$$
>  <binder>
QLSFNTDTLC [ABCA2, Q9BZC7]

>  <measurement-name>
pKd

>  <result>
below the threshold

$$$$

## Task Provide pKd value for the following binder: PPGKHLVTEV [KCNA7, Q96RP8]
## Result below the threshold

## Task Input RSSGGDDFWF [KCNV1, Q6PIU1] , output reported pKd.
## Result 4.45

## Task Give me measured pKd, please, for this binder: DTKNYKQTSV [CRIPT, Q9P021]
## Result below the threshold

## Task Return the recorded pKd value; entry: PTPDLPQTRV [KLHDC7A, Q5VTJ3]
## Result below the threshold

## Task Please indicate pKd recorded for AAVENKVTDL [PLXNB1, O43157]
## Result below the threshold

## Task Please look at this binder and report its pKd: LPAVCYDIDI [PTTG2, Q9NZH5]
## Result 4.27
